Recorded values, source patent US20230265151A1.

Recorded EC50, cAMP by entry
assayed target: T1, human GIP receptor (human, UniProt P48546 22-466)
T1 sequence (looked up): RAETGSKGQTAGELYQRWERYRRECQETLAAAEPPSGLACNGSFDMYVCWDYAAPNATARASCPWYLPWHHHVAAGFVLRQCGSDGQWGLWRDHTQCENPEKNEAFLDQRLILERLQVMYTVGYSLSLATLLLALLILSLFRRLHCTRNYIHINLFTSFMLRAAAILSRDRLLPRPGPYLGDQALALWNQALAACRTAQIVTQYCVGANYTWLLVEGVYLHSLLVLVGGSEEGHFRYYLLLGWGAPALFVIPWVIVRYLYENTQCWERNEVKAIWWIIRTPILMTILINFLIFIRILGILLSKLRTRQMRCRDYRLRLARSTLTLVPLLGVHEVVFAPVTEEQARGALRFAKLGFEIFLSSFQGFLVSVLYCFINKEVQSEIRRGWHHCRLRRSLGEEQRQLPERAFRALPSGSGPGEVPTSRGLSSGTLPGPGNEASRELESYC
measurement description: cell-based or functional assay
// unit must come after the numeric part

binder	EC50, cAMP
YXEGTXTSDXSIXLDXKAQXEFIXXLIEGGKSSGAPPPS (Aib2, αMeF(2F)6, 4Pal10, αMeL13, Orn16, Aib20, D-Glu24, αMeY25, K17 and K31: K(AEEA2-(10-(4-carboxyphenoxy)decanoyl)), C-terminal NH2) [Example 10]	0.0106 nM
YXEGTXTSDKSIXLDXKAQXEFIXXLIEGGPSSGAPPPS (Aib2, αMeF(2F)6, αMeL13, Orn16, Aib20, D-Glu24, αMeY25, K10 and K17: K(AEEA2-(γ-Glu)-(4-(4-tert-butylphenyl)butanoyl)), C-terminal NH2) [Example 130]	0.0266 nM

Would you kindly look at the next entry?
Query :: Requested read-out: EC50, cAMP. Entry: YXEGTXTSDXSIXLDXIAQXKFIXXLIEGGKSSGAPPPS (Aib2, αMeF(2F)6, 4Pal10, αMeL13, Orn16, Aib20, D-Glu24, αMeY25, K21 and K31: K(AEEA2-(γ-Glu)-CO-(CH2)12-CO2H), C-terminal NH2) [Example 74]
Result :: 0.0156 nM
